- Tested on: B6C3F1 mice, ip Sarcoma M5076, median survival T/C
- TEST_DETAILS: NCI In Vivo Anticancer Drug Screen. Data for tumor model Sarcoma M5076 (intraperitoneal) in B6C3F1 mice
- CONDITIONS_USED: endpoint: median survival time; dose: 150.0 mg/kg/injection; schedule: Q04DX004 (ip); vehicle: saline; higher = longer survival
- Experimental: The antitumor activity of compounds was measured in mice bearing transplantable tumors. Survival or tumor size were measured and the results are expressed as the measurement made in the treated group (T) divided by the measurement made in the vehicle treated control group (C). The tumor model used in this assay is Sarcoma M5076 (intraperitoneal) in B6C3F1 mice
Toxic doses and inconclusive results are not listed.
MEASURE: T/C

Input line: Could you tell me which T/C is on file for CC(=O)NCCSSCCCCS(=O)O ?
Output line: 100 % of control

Input line: What measured T/C goes with CC(=O)N1CCCN(C)/C1=N/[N+](=O)[O-] ?
Output line: 104 % of control

Input line: What measured T/C goes with O=C(CCl)N1CCN(C/C=C/c2ccccc2)CC1 ?
Output line: 96 % of control

* * *

- System: B6C3F1 mice, ip Sarcoma M5076, median survival T/C
- TEST_DETAILS: NCI In Vivo Anticancer Drug Screen. Data for tumor model Sarcoma M5076 (intraperitoneal) in B6C3F1 mice
- CONDITIONS_USED: endpoint: median survival time; dose: 100.0 mg/kg/injection; schedule: Q04DX004 (ip); vehicle: saline with Tween-80; higher = longer survival
Toxic doses and inconclusive results are not listed.
MEASURE: T/C

Input line: GET /values?readout=T/C&item= O=C(Nc1nc(-c2ccccc2)cs1)OCC(Cl)(Cl)Cl
Output line: 94 % of control

Input line: For the molecule Oc1ccc(/C=N/N=C/c2ccc(O)c(O)c2)cc1O , what T/C is on record?
Output line: 95 % of control

Input line: Dear colleague, I am looking for the recorded T/C of the following molecule: Cc1ccc2c(c1)n([O-])c1cc(Cl)ccc1[n+]2=O
Output line: 109 % of control

Input line: If you can, please state the reported T/C value of N=C1C=CC2C(=Nc3ccccc3[N+]2=O)N1CCO (stereo unspecified) .
Output line: 104 % of control

Input line: I have this molecule here, NC(=O)c1cc(Cl)nc2nc(Cl)nc(N)c12 , and I need its recorded T/C.
Output line: 99 % of control

Input line: Looking for the measured T/C of Clc1cccc(Cl)c1C(Nc1nncs1)Nc1nncs1 , can you help?
Output line: 123 % of control

* * *

Could you please report measured T/C for the items listed next?
- Tested on: B6C3F1 mice, ip Sarcoma M5076, median survival T/C
- TEST_DETAILS: NCI In Vivo Anticancer Drug Screen. Data for tumor model Sarcoma M5076 (intraperitoneal) in B6C3F1 mice
- CONDITIONS_USED: endpoint: median survival time; dose: 50.0 mg/kg/injection; schedule: Q04DX004 (ip); vehicle: saline with Tween-80; higher = longer survival
Inconclusive results and toxic doses are left out.

Input line: Quick one: T/C for COc1ccc(O)cc1 ?
Output line: 98 % of control

Input line: Look at this compound and give its reported T/C. [NH-]C(CCC(N)=O)C(=O)O.[NH-]C(CCC(N)=O)C(=O)O.[Zn+2] (centres undefined)
Output line: 96 % of control

Input line: May I ask what T/C has been recorded for Clc1nc2cc3c(cc2n2cccc12)oc1ccccc13 ?
Output line: 95 % of control

Input line: Give the measured T/C of Cc1cc2cc3cc(C)c(N)cc3nc2cc1N .
Output line: 117 % of control

Input line: Name the reported T/C value associated with the compound COc1ccc(C(C)c2cc3c(cc2OC)OCO3)cc1 (centres undefined)
Output line: 115 % of control

Input line: // query T/C value for entry COc1cc2c(c3c1/c(=N/N)c1ccccc1n3C)C=CC(C)(C)O2
Output line: 110 % of control

Input line: Recorded T/C of CC1=NN(c2ccccc2)C(=O)C1=Nc1c(C)[nH]n(-c2ccccc2)c1=O , please.
Output line: 89 % of control

Input line: Value lookup for T/C; key = CC(C)NCC(O)CC(c1ccccc1)c1ccccc1 (centres undefined)
Output line: 98 % of control

Input line: Quick check: T/C of O=C1NC2(CN3CCC2CC3)C(=O)N1CN(Cc1ccccc1)c1ccccc1 (centres undefined) ?
Output line: 97 % of control

Input line: GET /values?readout=T/C&item= CCOC(=O)/N=[N+](\[O-])c1ccccc1
Output line: 101 % of control

Input line: Name the reported T/C value associated with the compound CC(=O)Nc1ccc(Nc2ccc(C(=C3C=CC(=[N+](C)CCC#N)C=C3)c3ccc(N(C)CCC#N)cc3)cc2)cc1
Output line: 99 % of control

Input line: # query: T/C of entry Clc1ccccc1C(Cc1c(Cl)cccc1Cl)Cn1ccnc1 (centres undefined)
Output line: 101 % of control

Input line: What value of measured T/C is listed for C=CCNC(=O)c1ccccc1SC(C)=O ?
Output line: 103 % of control

Input line: So what does the record say about T/C for CCOC(=O)Nc1cc2c(c(N)n1)N=C(c1ccccc1)CO2 ?
Output line: 101 % of control

Input line: Data request, read-out T/C, for NC12CC3CC(CC(C3)C1)C2
Output line: 94 % of control

Input line: Quick check: T/C of C/C([O-])=c1\c(C)nn2ccc[n+]12 ?
Output line: 106 % of control

Input line: Requested field: T/C. Item: O=C(Nc1ccccc1O)C1C(=O)C(=O)N(c2ccccc2O)C1=O (centres undefined)
Output line: 106 % of control

Input line: What value of T/C has been recorded for this entry: NC(=O)c1cc(Cl)nc2nc(Cl)nc(N)c12
Output line: 97 % of control

Input line: Give its T/C value. Item: OC1(c2cccc(Cl)c2)C2=NCCCN2c2ccccc21 (centres undefined)
Output line: 99 % of control

Input line: Returns the measured T/C for the input compound. Input: O=C1CCC(=O)N1CO
Output line: 93 % of control

Input line: Name the reported T/C value associated with the compound O=C1c2ccccc2C(=O)c2c(NCCOCCO)ccc(NCCOCCO)c21
Output line: 103 % of control

Input line: What value of T/C has been recorded for this entry: O=C1N(Cl)C(=O)C(c2ccc(Cl)cc2)(c2ccc(Cl)cc2)N1Cl
Output line: 102 % of control

Input line: Look up T/C: NC(=O)C1C=CN(Cc2ccccc2)C=C1
Output line: 111 % of control

Input line: Which T/C is listed for COc1cccc(-n2cc[n+](C)c2/C=N/O)c1 ?
Output line: 108 % of control

Input line: Endpoint output: T/C of NNC(=O)c1ccc(OCc2nc3ccccc3[nH]2)cc1 . Value?
Output line: 102 % of control

Input line: What measured T/C goes with CCNC(=O)OCc1cnc(C)c(OC(=O)NCC)c1COC(=O)NCC ?
Output line: 89 % of control

Input line: Given the compound Cc1cc2c(C(C)C)c(O)c(O)c(C=NCCO)c2c(O)c1-c1c(C)cc2c(C(C)C)c(O)c(O)c(C=NCCO)c2c1O , what is its reported T/C?
Output line: 116 % of control

Input line: Item under review: Cc1cc(Br)c2nsnc2c1[N+](=O)[O-] . Reported T/C?
Output line: 96 % of control

Input line: // returns reported T/C for input OC1OCC(COc2ccc(Cl)cc2)OC1O (centres undefined)
Output line: 103 % of control

Input line: Report T/C for O=S1ON=C(C2CCC(C3=NOS(=O)O3)C2)O1 (centres undefined) please.
Output line: 102 % of control

Input line: Item Nc1cc(=O)n(Cc2ccco2)c(=S)[nH]1 has what recorded T/C?
Output line: 106 % of control

Input line: Which T/C is listed for CCc1c(C)c(SC)n(C)c(=O)c1C#N ?
Output line: 111 % of control

Input line: Which T/C reading was recorded for the compound O=C(Oc1ccccc1)c1cc(O)c(O)c(O)c1 ?
Output line: 93 % of control

Input line: Report T/C for Oc1ccc(/C=N/N=C/c2ccc(O)c(O)c2)cc1O please.
Output line: 98 % of control

Input line: Quick one: T/C for O=C1C=CC(=CC=C2C=CN(CCCCCCCCCCCO)C=C2)C=C1 ?
Output line: 111 % of control

Input line: // T/C lookup, key: N#CCS(=O)(=O)c1cccc[n+]1[O-]
Output line: 99 % of control

Input line: I am curious: what T/C value has been reported for COc1cc(C2CC(C)(O)Oc3cc4c(cc32)OCO4)cc(OC)c1OC (centres undefined) ?
Output line: 115 % of control

Input line: Fill in the blank: the reported T/C of S=C(NCNC(=S)c1ccncc1)c1ccncc1 is ____.
Output line: 99 % of control

Input line: Would you kindly share the measured T/C for Cc1cc(=O)n(Cc2ccco2)c(=S)[nH]1 ?
Output line: 105 % of control
